Consider the following compounds and their measured Papp at 2 h readings.
Assay protocol: Human Caco-2 bidirectional permeability A to B and B to A
Assay type: in vitro ADME
Condition info: Caco-2, 2 hours, pH 7.4
Please answer using a numeric value trailed by its unit.

Guide cases for Papp at 2 h, answers given:
Reported Papp at 2 h, compound C[C@@H]1Cc2c(ccc3[nH]ncc23)[C@@H](c2ccc(NC3CN(CCCF)C3)cn2)N1CC(F)F : ____
5 ×10⁻⁶ cm/s

Cool, now C[C@@H]1Cc2c(ccc3[nH]nc(F)c23)[C@@H](c2ccc(NC3CN(CCCF)C3)cn2)N1CC(F)(F)F
3.4 ×10⁻⁶ cm/s

Okay, and C[C@@H]1Cc2c(ccc3[nH]nc(F)c23)[C@@H](c2ncc(NC3CN(CCCF)C3)cc2F)N1CC(F)(F)F ?
2.6 ×10⁻⁶ cm/s

Next:
Which value of Papp at 2 h has been reported for COc1cc(NC2CN(CCCF)C2)ccc1[C@@H]1c2ccc3[nH]ncc3c2C[C@@H](C)N1CC(C)(C)F in the records?
2 ×10⁻⁶ cm/s
